These entries and their values trace back to patent US20240392003A1.

As shown below, each of these binders has a reported pKd value.
system.under.test: T1, recombinant human ROR1 protein (Fc-Tag, Acro Biosystems RO1-H5250) (human, UniProt Q01973 30-406)
T1 construct: Bought; also called hROR1; recombinant human ROR1 ECD; not shown: Fc tag
measurement.notes: SPR; hROR1-Fc immobilized
Worth noting: pKd values are minus log10 of concentrations stated in mol/L.

binder	pKd
PRO2291 (scFv, V domains shown, scFv, PRO2060 with VL-VH interdomain disulfide (AHo 141VL-51VH); also called 55-38-D07-sc06) VH: QSQVVESGGGLVQPGGSLRLSCAVSGFDLSSYAVSWVRQAPGKCLEWIGIIYPRANTYYASWAKGRFTISKDNSKNTVYLQMNSLRAEDTAVYFCARDRYDSGAYLYTTYFNLWGQGTLVTVSS VL: DVQMTQSPSSLSASVGDRVTITCRASENIYSGLAWYQQKPGKPPKLLIYRASTLASGVSSRFSGSGSGTDFTLTISSLQPEDFATYYCQGGYYSSSSTYIAFGCGTKVTVLG	8.95

input: Give pKd for the following binder: PRO2062 (scFv, V domains shown, scFv (Full graft); also called 55-39-G02-sc02) VH: QSQLVESGGGLVQPGGSLRLSCAVSGLSLSRNAMSWVRQAPGKGLEWIGIILTSGSTYYASWAKGRFTISKDNSKNTVYLQMNSLRAEDTAVYFCVRGIASSSLKSFWGQGTLVTVSS VL: AQQLTQSPSSLSASVGDRVTITCQASQNVWNNNYLSWFQQKPGKPPKLLIVTASTLASGVSSRFSGSGSGTDFTLTISSLQPEDFATYYCAGGFSGEIRAFGTGTKVTVLG
output: 10.03
